system: A673/TR/shEF; experiment: cell viability (LOESS-normalised, relative to median of negative controls) (log2 ratio); higher = more viable cells (less compound effect), active = hit call of the paper (over 3 MAD below the median); conditions: 0.25 µM; library screen: screen1; EWS-FLI1 expression: high (no doxycycline); treatment time: 72 h
The whole screen tested about 3,200 compounds, of which about 300 (9.4%) showed activity. For the sample, actives were picked, then their nearest neighbours and some compounds at random.
// allowed return values: active, inactive

Hi, sorry to bother you, what did the test record for CCN1C[C@]2(C)CC[C@H](OC)[C@@]34C1[C@]1(OCO[C@@]15C[C@H](OC)[C@H]1C[C@]3(O)[C@@H]5[C@H]1OC)[C@@H](OC(C)=O)[C@H]24 ?
inactive

----------
tested on: A673/TR/shEF; experiment: cell viability (LOESS-normalised, relative to median of negative controls) (log2 ratio); higher = more viable cells (less compound effect), active = hit call of the paper (over 3 MAD below the median); settings: 2.5 µM; library screen: screen1; EWS-FLI1 expression: high (no doxycycline); treatment time: 72 h
Screen size: about 3,200 compounds; about 300 (9.4%) showed activity. Many of the other results were omitted from the sample, so actives are more common in it than they were.
Class boundaries, taken from values of cell viability (log2), are as follows: c1: < 0.05; c2: ≥ 0.05 and < 0.1; c3: ≥ 0.1

Answered examples (8):
compound=Cc1cccc(CN2CCN(Cc3ccc(F)cc3)CC2)c1 class_label=c3
compound="COc1cc2c(cc1O)CCNC2C (centres undefined)" class_label=c1
compound=O=c1cccc2n1C[C@@H]1CNC[C@H]2C1 class_label=c1
compound="CCC(C)c1cnc(CC(C)C)c(=O)n1O (centres undefined)" class_label=c2
compound="NCCC(O)C(=O)NC1CC(N)C(OC2OC(CN)C(O)C(O)C2N)C(OC2OC(CO)C(O)C2O)C1O (centres undefined)" class_label=c3
compound=O=C1C(Cl)=C(Cl)C(=O)C(Cl)=C1Cl class_label=c3
compound=COc1ccccc1N1CCNCC1 class_label=c3
compound=c1ccc2nc(N3CCNCC3)ccc2c1 class_label=c1

Looking at CC(=O)c1c(O)c(C)c(O)c(Cc2c(O)c3c(c(C(=O)/C=C/c4ccccc4)c2O)OC(C)(C)C=C3)c1O , which class would you pick?
c2

Returns: class label. Input: O.O=C1OC2(c3cc(Br)c([O-])cc3Oc3c2cc(Br)c([O-])[c]3[Hg])c2ccccc21.[Na+].[Na+] (centres undefined)
c3

Class (by measured cell viability (log2)) for C=C(C)C(=O)/C(=C\C(=O)O)OC
c3

Form: Item = CCOC(=O)NC1=C(N2CC2)C(=O)C(NC(=O)OCC)=C(N2CC2)C1=O ; Class = ?
c2

Tag the class for CO[C@H]1[C@H](O)[C@H](O[C@H]2CC[C@@]3(C)[C@H](CC[C@@H]4[C@@H]3CC[C@]3(C)[C@@H](C5=CC(=O)OC5)CC[C@]43O)C2)O[C@@H](C)[C@@H]1O
c1

----------
test system: A673/TR/shEF; experiment: cell viability (LOESS-normalised, relative to median of negative controls) (log2 ratio); higher = more viable cells (less compound effect), active = hit call of the paper (over 3 MAD below the median); conditions: 0.25 µM; library screen: screen1; EWS-FLI1 expression: high (no doxycycline); treatment time: 72 h
Among all 3,200 compounds or so, about 300 (9.4%) showed activity. The list comes from a sample in which actives are over-represented; it also holds close analogues and randomly drawn compounds.
Category scheme (cell viability (log2)): bucket 1: < 0.06; bucket 2: ≥ 0.06 and < 0.09; bucket 3: ≥ 0.09

molecule=C=C(C)[C@H]1Cc2c(ccc3c(=O)c4c(oc23)COc2cc(OC)c(OC)cc2-4)O1 class_label="bucket 3"
molecule=Cn1c(=O)c2c(ncn2CCCl)n(C)c1=O class_label="bucket 2"
molecule=CC(=O)Oc1ccc(Cl)c2cccnc12 class_label="bucket 3"
molecule="CC(C)c1ccc2c(c1O)CCC1C3=C(CCC21C)C(=O)OC3 (centres undefined)" class_label="bucket 1"
molecule="CC(=O)O[C@@H]1C2CC[C@@H]3C1(C[C@@H](O)[C@@]1(O)[C@@H](C[C@H](O)C1(C)C)[C@]3(C)O)C[C@@]2(C)O (some centres undefined)" class_label="bucket 2"
molecule="CC(=O)O[C@H]1C[C@@H](OC(C)=O)C(C)(C)C2C[C@@H](OC(C)=O)[C@]3(C)C(CC[C@@]4(C)[C@H](c5ccoc5)C(=O)[C@H]5O[C@]543)[C@]21C (some centres undefined)" class_label="bucket 2"
molecule=Cc1[nH]c2ccccc2c1CN(C)C class_label="bucket 2"
molecule=CC1(C)C(=O)C=C[C@]2(C)[C@H]3CC[C@@]4(C)[C@H](c5ccoc5)OC(=O)[C@H]5O[C@]54[C@]3(C)[C@H](O)C[C@@H]12 class_label="bucket 1"

Returns: class label. Input: N#C/C(=C\c1cccc(O)c1)C(=O)O
bucket 2
